For PI3Kα (Homo sapiens), measured IC50 is reported for the entries below.

[in] Kindly state the measured IC50 obtained for `CCCNc1ccc(-c2nc(N3CCOCC3)c3nc(-c4cccc(NS(=O)(=O)CCCF)c4F)ccc3n2)cn1` with PI3Kα (Homo sapiens).
Sequence (P42336 whole entry, species assumed): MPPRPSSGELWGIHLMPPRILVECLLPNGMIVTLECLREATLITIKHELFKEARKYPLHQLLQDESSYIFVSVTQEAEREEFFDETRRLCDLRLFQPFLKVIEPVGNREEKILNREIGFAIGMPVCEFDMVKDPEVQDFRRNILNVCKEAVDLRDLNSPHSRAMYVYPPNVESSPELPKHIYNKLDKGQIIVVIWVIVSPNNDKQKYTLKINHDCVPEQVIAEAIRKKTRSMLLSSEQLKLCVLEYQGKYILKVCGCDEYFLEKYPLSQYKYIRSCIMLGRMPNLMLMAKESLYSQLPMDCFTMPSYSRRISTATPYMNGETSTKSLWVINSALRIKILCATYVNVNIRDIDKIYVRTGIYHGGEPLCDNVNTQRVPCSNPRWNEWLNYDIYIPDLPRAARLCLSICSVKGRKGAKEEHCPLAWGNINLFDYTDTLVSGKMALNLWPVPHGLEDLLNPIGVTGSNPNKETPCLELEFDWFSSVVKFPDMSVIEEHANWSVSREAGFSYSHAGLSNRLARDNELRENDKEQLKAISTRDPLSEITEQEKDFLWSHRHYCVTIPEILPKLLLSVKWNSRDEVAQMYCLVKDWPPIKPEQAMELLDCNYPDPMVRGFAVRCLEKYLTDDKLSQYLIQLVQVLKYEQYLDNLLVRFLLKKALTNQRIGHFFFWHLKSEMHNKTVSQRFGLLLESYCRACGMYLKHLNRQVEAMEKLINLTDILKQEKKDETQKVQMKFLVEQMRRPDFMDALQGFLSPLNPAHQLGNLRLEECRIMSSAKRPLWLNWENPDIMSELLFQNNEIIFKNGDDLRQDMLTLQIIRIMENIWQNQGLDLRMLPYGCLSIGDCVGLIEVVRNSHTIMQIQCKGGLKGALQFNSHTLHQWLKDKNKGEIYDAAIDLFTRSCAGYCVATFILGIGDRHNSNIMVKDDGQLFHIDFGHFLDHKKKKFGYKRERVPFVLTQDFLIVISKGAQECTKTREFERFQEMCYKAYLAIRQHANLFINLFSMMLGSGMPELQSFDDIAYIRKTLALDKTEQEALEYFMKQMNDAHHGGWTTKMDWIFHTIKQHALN
Sequence (P27986 whole entry partner, species assumed): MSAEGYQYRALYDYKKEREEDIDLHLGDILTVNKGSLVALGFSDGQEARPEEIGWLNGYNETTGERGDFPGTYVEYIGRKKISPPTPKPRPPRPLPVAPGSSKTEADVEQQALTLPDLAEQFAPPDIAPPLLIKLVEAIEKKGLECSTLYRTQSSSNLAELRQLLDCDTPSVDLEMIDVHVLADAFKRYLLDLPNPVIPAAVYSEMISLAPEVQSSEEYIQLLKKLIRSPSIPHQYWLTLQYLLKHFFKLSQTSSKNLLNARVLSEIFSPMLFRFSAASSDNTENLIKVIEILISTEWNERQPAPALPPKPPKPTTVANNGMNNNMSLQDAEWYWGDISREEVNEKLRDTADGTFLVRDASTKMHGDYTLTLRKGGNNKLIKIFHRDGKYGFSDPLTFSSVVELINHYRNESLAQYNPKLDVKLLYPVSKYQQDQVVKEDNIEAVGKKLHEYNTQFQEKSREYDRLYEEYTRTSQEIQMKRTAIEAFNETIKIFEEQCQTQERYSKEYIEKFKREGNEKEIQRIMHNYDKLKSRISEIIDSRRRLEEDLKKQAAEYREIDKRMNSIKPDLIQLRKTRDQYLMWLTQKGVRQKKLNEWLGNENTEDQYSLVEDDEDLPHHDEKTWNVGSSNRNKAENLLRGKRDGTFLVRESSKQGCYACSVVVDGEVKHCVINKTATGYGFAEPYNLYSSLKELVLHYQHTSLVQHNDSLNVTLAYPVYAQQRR
[out] 100 to 1000 nM

[in] Hello, I am looking for reported IC50 with PI3Kα (Homo sapiens) for `O=S(=O)(CCCF)Nc1cccc(-c2ccc3nc(-c4cccc5[nH]ncc45)nc(N4CCOCC4)c3n2)c1F` . Could you help?
[out] 100 to 1000 nM

[in] Identify the measured IC50 of `Nc1ncc(-c2nc(N3CCOCC3)c3nc(-c4cccc(NS(=O)(=O)c5cc(F)ccc5F)c4F)ccc3n2)cn1` for PI3Kα (Homo sapiens).
[out] 1 to 100 nM
